target: T1, Recombinant MBP-mutCALR Type 1 fusion protein (human); experiment: SPR, IgG captured, 1:1 fit, Exp. 2
T1 construct: custom made at Cepter; also called recombinant mutCALR protein
quantity: pKd
Please treat pKd as minus the base-10 logarithm of the molar concentration.

These solved cases illustrate the format of a correct answer.
binder	pKd
anti-mutCALR antibody clone 68 (antibody, human IgG1, lambda, N297A, V domains shown, human IgG1 N297A variant of clone 6) VH: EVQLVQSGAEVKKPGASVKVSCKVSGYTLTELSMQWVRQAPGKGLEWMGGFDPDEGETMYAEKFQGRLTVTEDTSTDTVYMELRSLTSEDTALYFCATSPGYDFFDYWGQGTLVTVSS VL: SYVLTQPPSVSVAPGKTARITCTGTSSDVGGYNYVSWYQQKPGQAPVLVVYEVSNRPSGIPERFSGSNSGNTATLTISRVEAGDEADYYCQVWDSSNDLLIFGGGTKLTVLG	8.94
anti-mutCALR antibody clone 60 (antibody, human IgG1, lambda, N297A, V domains shown, human IgG1 N297A variant of clone 6) VH: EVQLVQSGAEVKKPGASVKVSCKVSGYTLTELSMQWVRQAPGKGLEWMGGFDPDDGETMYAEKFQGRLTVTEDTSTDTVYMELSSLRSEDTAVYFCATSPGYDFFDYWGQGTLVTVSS VL: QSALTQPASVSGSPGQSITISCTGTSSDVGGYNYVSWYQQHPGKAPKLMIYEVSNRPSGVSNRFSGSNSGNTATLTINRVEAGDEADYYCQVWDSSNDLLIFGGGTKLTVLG	8.94
anti-mutCALR antibody clone 183 (antibody, human IgG1, lambda, N297A, V domains shown) VH: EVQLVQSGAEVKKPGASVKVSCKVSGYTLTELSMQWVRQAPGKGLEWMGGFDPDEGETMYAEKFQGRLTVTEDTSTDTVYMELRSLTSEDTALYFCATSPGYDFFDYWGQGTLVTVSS VL: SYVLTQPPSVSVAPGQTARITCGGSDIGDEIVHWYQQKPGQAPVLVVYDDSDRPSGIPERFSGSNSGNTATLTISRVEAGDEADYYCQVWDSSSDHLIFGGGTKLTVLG	9.00
anti-mutCALR antibody clone 138 (antibody, human IgG1, lambda, N297A, V domains shown, human IgG1 N297A variant of clone 15) VH: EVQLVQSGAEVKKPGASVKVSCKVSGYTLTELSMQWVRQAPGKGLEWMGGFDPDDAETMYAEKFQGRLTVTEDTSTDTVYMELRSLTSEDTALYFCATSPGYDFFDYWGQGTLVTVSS VL: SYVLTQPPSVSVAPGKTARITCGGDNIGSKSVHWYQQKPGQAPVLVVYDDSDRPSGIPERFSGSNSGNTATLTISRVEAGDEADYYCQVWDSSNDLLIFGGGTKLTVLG	9.06

Consider now this further binder.
# input Look up and state reported pKd for anti-mutCALR antibody clone 137 (antibody, human IgG1, lambda, N297A, V domains shown, human IgG1 N297A variant of clone 15) VH: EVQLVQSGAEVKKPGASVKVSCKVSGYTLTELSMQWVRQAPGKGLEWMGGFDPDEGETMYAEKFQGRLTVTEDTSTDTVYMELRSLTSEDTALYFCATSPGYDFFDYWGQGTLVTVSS VL: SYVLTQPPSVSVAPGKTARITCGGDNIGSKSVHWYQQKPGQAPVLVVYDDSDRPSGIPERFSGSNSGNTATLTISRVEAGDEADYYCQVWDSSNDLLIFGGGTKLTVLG
# output 8.90
